# TARGET_UNDER_TEST: Phosphatidylinositol 4,5-bisphosphate 3-kinase catalytic subunit alpha isoform (Homo sapiens, UniProt P42336)
# Sequence (P42336 whole entry, canonical isoform): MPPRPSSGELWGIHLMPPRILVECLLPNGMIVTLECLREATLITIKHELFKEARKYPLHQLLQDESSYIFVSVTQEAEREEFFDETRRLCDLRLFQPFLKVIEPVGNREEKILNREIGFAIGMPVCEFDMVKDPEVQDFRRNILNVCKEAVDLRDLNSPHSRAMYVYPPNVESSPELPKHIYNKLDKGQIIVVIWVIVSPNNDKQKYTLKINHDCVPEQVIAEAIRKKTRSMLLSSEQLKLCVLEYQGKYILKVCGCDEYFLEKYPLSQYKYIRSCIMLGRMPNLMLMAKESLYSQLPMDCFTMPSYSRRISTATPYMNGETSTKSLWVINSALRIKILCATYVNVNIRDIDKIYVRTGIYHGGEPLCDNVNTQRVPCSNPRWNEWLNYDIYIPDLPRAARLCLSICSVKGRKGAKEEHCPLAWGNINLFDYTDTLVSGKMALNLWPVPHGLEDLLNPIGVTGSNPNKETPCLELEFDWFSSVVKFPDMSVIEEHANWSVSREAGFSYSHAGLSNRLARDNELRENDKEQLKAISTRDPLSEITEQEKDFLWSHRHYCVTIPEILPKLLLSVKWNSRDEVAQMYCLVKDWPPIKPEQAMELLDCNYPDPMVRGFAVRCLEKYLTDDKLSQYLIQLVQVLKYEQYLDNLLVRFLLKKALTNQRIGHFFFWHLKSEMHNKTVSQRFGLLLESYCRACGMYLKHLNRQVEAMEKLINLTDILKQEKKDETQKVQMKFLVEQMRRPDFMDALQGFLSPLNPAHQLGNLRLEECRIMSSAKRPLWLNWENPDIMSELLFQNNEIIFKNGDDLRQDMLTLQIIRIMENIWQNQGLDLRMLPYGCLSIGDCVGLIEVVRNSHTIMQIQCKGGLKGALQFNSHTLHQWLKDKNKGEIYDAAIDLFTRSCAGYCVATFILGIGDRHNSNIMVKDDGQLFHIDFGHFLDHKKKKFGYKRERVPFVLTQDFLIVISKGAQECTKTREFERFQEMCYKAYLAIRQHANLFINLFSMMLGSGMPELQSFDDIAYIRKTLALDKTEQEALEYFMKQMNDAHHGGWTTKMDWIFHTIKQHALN
# MEASUREMENT_NOTES: Inhibition of PI3Kalpha (unknown origin)
pIC50: −log10 of the molar value.
QUANTITY_KIND: pIC50

smiles=CCc1nc2ccccc2n1-c1nc(N2CCOCC2)c2sc(CN3CCN(C4CCCC4)CC3=O)cc2n1 measured_number=6.61
smiles=C=CCN1CCN(Cc2cc3nc(-n4c(CC)nc5ccccc54)nc(N4CCOCC4)c3s2)C(=O)C1 measured_number=6.53
smiles=CCc1nc2ccccc2n1-c1nc(N2CCOCC2)c2sc(CN3CCN(C4CCCC4)C(=O)C3)cc2n1 measured_number=6.60
smiles=CCc1nc2ccccc2n1-c1nc(N2CCOCC2)c2sc(CN3CCN(C(=O)C4CCC4)CC3=O)cc2n1 measured_number=6.93
smiles=CCc1nc2ccccc2n1-c1nc(N2CCOCC2)c2sc(CN3CCN(C(=O)C4CC4)CC3=O)cc2n1 measured_number=7.08

====

# TARGET_UNDER_TEST: Phosphatidylinositol 4,5-bisphosphate 3-kinase catalytic subunit delta isoform (Homo sapiens)
# Sequence (O00329 whole entry, canonical isoform): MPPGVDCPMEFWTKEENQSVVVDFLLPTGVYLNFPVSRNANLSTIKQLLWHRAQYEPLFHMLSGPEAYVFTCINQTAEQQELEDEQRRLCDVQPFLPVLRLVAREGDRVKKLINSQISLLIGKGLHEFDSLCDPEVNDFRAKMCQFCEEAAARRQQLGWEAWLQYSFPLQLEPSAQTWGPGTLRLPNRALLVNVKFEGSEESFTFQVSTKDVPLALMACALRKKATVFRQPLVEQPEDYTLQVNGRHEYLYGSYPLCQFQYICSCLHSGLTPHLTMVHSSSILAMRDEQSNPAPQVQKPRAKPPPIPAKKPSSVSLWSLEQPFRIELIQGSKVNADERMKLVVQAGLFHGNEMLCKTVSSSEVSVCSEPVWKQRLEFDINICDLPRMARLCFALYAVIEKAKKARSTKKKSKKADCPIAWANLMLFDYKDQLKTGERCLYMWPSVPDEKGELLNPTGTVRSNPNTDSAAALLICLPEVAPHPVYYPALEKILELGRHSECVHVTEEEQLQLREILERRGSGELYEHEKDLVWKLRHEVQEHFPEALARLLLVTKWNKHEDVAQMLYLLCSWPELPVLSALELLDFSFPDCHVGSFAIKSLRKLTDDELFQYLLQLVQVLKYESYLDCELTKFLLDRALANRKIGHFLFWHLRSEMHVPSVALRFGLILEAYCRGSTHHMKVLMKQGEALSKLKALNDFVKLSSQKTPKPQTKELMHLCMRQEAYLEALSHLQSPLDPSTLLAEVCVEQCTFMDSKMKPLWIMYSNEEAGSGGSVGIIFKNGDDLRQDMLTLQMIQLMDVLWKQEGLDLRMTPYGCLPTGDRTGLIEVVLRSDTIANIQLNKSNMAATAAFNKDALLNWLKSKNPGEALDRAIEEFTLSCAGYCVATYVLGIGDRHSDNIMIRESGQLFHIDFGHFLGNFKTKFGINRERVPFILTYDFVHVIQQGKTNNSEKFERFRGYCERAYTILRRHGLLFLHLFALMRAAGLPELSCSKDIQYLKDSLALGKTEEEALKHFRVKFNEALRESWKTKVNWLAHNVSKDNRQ
# MEASUREMENT_NOTES: Inhibition of PI3Kdelta (unknown origin)
Assign classes using reported IC50 values and the ranges I (below 3 nM), II (3 nM to below 5 nM), III (5 nM or more), please.

compound=CCc1nc2ccccc2n1-c1nc(N2CCOCC2)c2sc(CN3CCN(c4cnn(C)c4)C(=O)C3)cc2n1 label=II
compound=CCc1nc2ccccc2n1-c1nc(N2CCOCC2)c2sc(CN3CCN(C)CC3=O)cc2n1 label=II
compound=CCc1nc2ccccc2n1-c1nc(N2CCOCC2)c2sc(CN3CCN(CC(F)(F)F)CC3=O)cc2n1 label=III
compound=CCc1nc2ccccc2n1-c1nc(N2CCOCC2)c2sc(CN3CCN(CC4CC4)CC3=O)cc2n1 label=III
compound=CCc1nc2ccccc2n1-c1nc(N2CCOCC2)c2sc(CN3CCN(S(C)(=O)=O)CC3)cc2n1 label=II
compound=CCc1nc2ccccc2n1-c1nc(N2CCOCC2)c2sc(CN3CCN(C4CCCC4)CC3)cc2n1 label=III
compound=CCc1nc2ccccc2n1-c1nc(N2CCOCC2)c2sc(CN3CCN(C(=O)[C@H](C)O)CC3=O)cc2n1 label=II
compound=CCc1nc2ccccc2n1-c1nc(N2CCOCC2)c2sc(CN3CCN(C4CCC(F)(F)CC4)CC3=O)cc2n1 label=II
compound=CCc1nc2ccccc2n1-c1nc(N2CCOCC2)c2sc(CN3CCN(CC(N)=O)C(=O)C3)cc2n1 label=III
compound=CCc1nc2ccccc2n1-c1nc(N2CCOCC2)c2sc(CN3CCN(S(=O)(=O)CC)CC3=O)cc2n1 label=II
compound=CCc1nc2ccccc2n1-c1nc(N2CCOCC2)c2sc(CN3CCN(C(C)=O)CC3=O)cc2n1 label=II
compound=CCc1nc2ccccc2n1-c1nc(N2CCOCC2)c2sc(CN3CCN(C4CCCCC4)CC3=O)cc2n1 label=III
compound=CCc1nc2ccccc2n1-c1nc(N2CCOCC2)c2sc(CN3CCN(c4cccnc4)C(=O)C3)cc2n1 label=III
compound="CCc1nc2ccccc2n1-c1nc(N2CCOCC2)c2sc(CN3CCN(C4CCC(N5CCCC5)CC4)CC3=O)cc2n1 (stereo not drawn)" label=III
compound=CCc1nc2ccccc2n1-c1nc(N2CCOCC2)c2sc(CN3CCN(C(C)C)CC3=O)cc2n1 label=I
compound=C=CCN1CCN(Cc2cc3nc(-n4c(CC)nc5ccccc54)nc(N4CCOCC4)c3s2)C(=O)C1 label=I
compound=C=CC(=O)N1CCN(Cc2cc3nc(-n4c(CC)nc5ccccc54)nc(N4CCOCC4)c3s2)C(=O)C1 label=I
compound=CCc1nc2ccccc2n1-c1nc(N2CCOCC2)c2sc(CN3CCN(S(=O)(=O)C4CC4)CC3)cc2n1 label=II
compound=CCc1nc2ccccc2n1-c1nc(N2CCOCC2)c2sc(CN3CCN(C4CCCC4)CC3=O)cc2n1 label=I
compound=CCc1nc2ccccc2n1-c1nc(N2CCOCC2)c2sc(CN3CCN(C(=O)OC(C)(C)C)CC3=O)cc2n1 label=III
compound=CCc1nc2ccccc2n1-c1nc(N2CCOCC2)c2sc(CN3CCN(C4CCCC4)C(=O)C3)cc2n1 label=I
compound=CCc1nc2ccccc2n1-c1nc(N2CCOCC2)c2sc(CN3CCN(C(=O)C4CCCC4)CC3=O)cc2n1 label=I
compound=CCc1nc2ccccc2n1-c1nc(N2CCOCC2)c2sc(CN3CCN([C@H]4CC[C@H](O)CC4)C(=O)C3)cc2n1 label=I
compound=CCc1nc2ccccc2n1-c1nc(N2CCOCC2)c2sc(CN3CCN(C4CCC(=O)CC4)CC3=O)cc2n1 label=I
compound=CCc1nc2ccccc2n1-c1nc(N2CCOCC2)c2sc(CN3CCN(c4nccs4)C(=O)C3)cc2n1 label=I
compound=CCc1nc2ccccc2n1-c1nc(N2CCOCC2)c2sc(CN3CCN(CC(N)=O)CC3=O)cc2n1 label=III
compound=CCc1nc2ccccc2n1-c1nc(N2CCOCC2)c2sc(CN3CCN(S(=O)(=O)C4CC4)CC3=O)cc2n1 label=I

====

Measured Ratio IC50, listed per entry for reference.
# Species on record: Homo sapiens
# MEASUREMENT_NOTES: Selectivity index, ratio of IC50 for PI3Kalpha (unknown origin) to IC50 for PI3Kdelta (unknown origin)
QUANTITY_KIND: Ratio IC50

compound="CCc1nc2ccccc2n1-c1nc(N2CCOCC2)c2sc(CN3CCN(C4CCC(N5CCCC5)CC4)CC3=O)cc2n1 (stereo not drawn)" measured_number=8
compound=CCc1nc2ccccc2n1-c1nc(N2CCOCC2)c2sc(CN3CCN(C4CCSCC4)CC3=O)cc2n1 measured_number=56
compound=CCc1nc2ccccc2n1-c1nc(N2CCOCC2)c2sc(CN3CCN(CC4CC4)CC3=O)cc2n1 measured_number=64
compound=CCc1nc2ccccc2n1-c1nc(N2CCOCC2)c2sc(CN3CCN(C(C)C)CC3=O)cc2n1 measured_number=53
compound=CCc1nc2ccccc2n1-c1nc(N2CCOCC2)c2sc(CN3CCN(C4CCCC4)CC3)cc2n1 measured_number=31
compound=CCc1nc2ccccc2n1-c1nc(N2CCOCC2)c2sc(CN3CCN(S(=O)(=O)C4CC4)CC3)cc2n1 measured_number=13
compound=CCc1nc2ccccc2n1-c1nc(N2CCOCC2)c2sc(CN3CCN(C4CCN(C)CC4)CC3=O)cc2n1 measured_number=25
compound=CCc1nc2ccccc2n1-c1nc(N2CCOCC2)c2sc(CN3CCN(C(C)=O)CC3=O)cc2n1 measured_number=35
